target: Cholesteryl ester transfer protein (Homo sapiens); experiment: Inhibition of CETP-mediated transfer of [3H]cholesteryl ester from HDL donar particles to LDL acceptor particles
ENDPOINT: pIC50
When answering, recall that pIC50 equals minus log10 of the concentration in mol/L, and write that number alone.

Entry under test: OC(CN1c2cccc(-c3cccc(OC(F)(F)F)c3)c2CCC1c1cccc(OC(F)(F)C(F)F)c1)C(F)(F)F (racemic) . Its pIC50 was 7.35

====

assay: Oral bioavailability in monkey at 10 mg/kg; assay type: ADME, organism-based, Macaca mulatta; conditions: rhesus monkey, in vivo
ENDPOINT: bioavailability (%)
Please state the figure in %; there is no need to write the unit.

Entry under test: O[C@@H](CN1c2cccc(-c3cccc(OC(F)(F)F)c3)c2CC[C@@H]1c1cccc(OC(F)(F)C(F)F)c1)C(F)(F)F . Its bioavailability was 27

====

assay: Half life in rat at 2 to 3 mg/kg, iv and 10 mg/kg, po; assay type: ADME, organism-based; details: in vivo
ENDPOINT: half-life (h)
Please state the figure in h; there is no need to write the unit.

Entry under test: O[C@@H](CN1c2cccc(-c3cccc(OC(F)(F)F)c3)c2CC[C@@H]1c1cccc(OC(F)(F)C(F)F)c1)C(F)(F)F . Its half-life was 28

====

test: AUC in rat at 2 to 3 mg/kg, iv and 10 mg/kg, po; type: ADME, organism-based; conditions: plasma
ENDPOINT: AUC (ng·h/mL)
Please state the figure in ng·h/mL; there is no need to write the unit.

Entry under test: O[C@@H](CN1c2cccc(-c3cccc(OC(F)(F)F)c3)c2CC[C@@H]1c1cccc(OC(F)(F)C(F)F)c1)C(F)(F)F . Its AUC was 31300

====

experiment: Oral bioavailability in rat at 10 mg/kg; assay type: ADME, organism-based; conditions: in vivo
ENDPOINT: bioavailability
Answer format: number, then unit.

Entry under test: O[C@@H](CN1c2cccc(-c3cccc(OC(F)(F)F)c3)c2CC[C@@H]1c1cccc(OC(F)(F)C(F)F)c1)C(F)(F)F . Its bioavailability was 31%

====

target: Cholesteryl ester transfer protein (Homo sapiens, UniProt P11597); assay: Inhibition of CETP-mediated transfer of cholesteryl ester to LDL/VLDL in human plasma by Roar assay; format: cell-free
Sequence (P11597 whole entry): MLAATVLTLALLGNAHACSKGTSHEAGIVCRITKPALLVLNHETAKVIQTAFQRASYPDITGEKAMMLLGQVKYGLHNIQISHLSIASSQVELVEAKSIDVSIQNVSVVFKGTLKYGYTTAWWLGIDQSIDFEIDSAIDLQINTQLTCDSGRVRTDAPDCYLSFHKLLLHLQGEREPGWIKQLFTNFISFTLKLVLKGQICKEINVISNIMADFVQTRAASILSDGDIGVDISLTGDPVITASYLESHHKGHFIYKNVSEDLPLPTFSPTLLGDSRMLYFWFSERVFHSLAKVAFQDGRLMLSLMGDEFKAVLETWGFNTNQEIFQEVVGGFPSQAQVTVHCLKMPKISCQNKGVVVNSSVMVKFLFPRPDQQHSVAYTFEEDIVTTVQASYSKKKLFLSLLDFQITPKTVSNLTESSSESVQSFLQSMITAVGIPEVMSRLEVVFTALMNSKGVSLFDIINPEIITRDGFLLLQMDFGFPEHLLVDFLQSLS
ENDPOINT: IC50 (nM)
Please state the figure in nM; there is no need to write the unit.

Entry under test: O[C@@H](CN1c2cccc(-c3cccc(OC(F)(F)F)c3)c2CC[C@@H]1c1cccc(OC(F)(F)C(F)F)c1)C(F)(F)F . Its IC50 was 1200

====

assay: Plasma concentration in normal chow diet-fed cynomolgus monkey at 10 mg/kg, po for 5 days; assay type: ADME, organism-based, Macaca fascicularis; design: dose 10 mg/kg, route oral
// concentration at 120 h lookup, one value per entry
Answer format: number, then unit.

Entry under test: O[C@@H](CN1c2cccc(-c3cccc(OC(F)(F)F)c3)c2CC[C@@H]1c1cccc(OC(F)(F)C(F)F)c1)C(F)(F)F . Its concentration at 120 h was 2700 nM

Kindly review the next compound as well.
Entry under test: CCOC(=O)N1c2ccc(C(F)(F)F)cc2[C@@H](N(Cc2cc(C(F)(F)F)cc(C(F)(F)F)c2)C(=O)OC)C[C@H]1CC . Its concentration at 120 h was 1300 nM

====

target: Cholesteryl ester transfer protein (Homo sapiens, UniProt P11597); experiment: Inhibition of human plasma-derived CETP activity by scintillation proximity assay; format: cell-free
ENDPOINT: pIC50
When answering, recall that pIC50 equals minus log10 of the concentration in mol/L, and write that number alone.

Entry under test: O[C@@H](CN1c2cccc(-c3cccc(OC(F)(F)F)c3)c2CC[C@@H]1c1cccc(OC(F)(F)C(F)F)c1)C(F)(F)F . Its pIC50 was 7.41

====

// concentration at 120 h lookup, one value per entry
assay: Plasma concentration in normal chow diet-fed cynomolgus monkey at 30 mg/kg, po for 5 days; assay type: ADME, organism-based, Macaca fascicularis; set-up: dose 30 mg/kg, route oral
Please state the figure in µM; there is no need to write the unit.

Entry under test: O[C@@H](CN1c2cccc(-c3cccc(OC(F)(F)F)c3)c2CC[C@@H]1c1cccc(OC(F)(F)C(F)F)c1)C(F)(F)F . Its concentration at 120 h was 5.9

---
Entry under test: CCOC(=O)N1c2ccc(C(F)(F)F)cc2[C@@H](N(Cc2cc(C(F)(F)F)cc(C(F)(F)F)c2)C(=O)OC)C[C@H]1CC . Its concentration at 120 h was 2.9

====

test: Plasma concentration in normal chow diet-fed cynomolgus monkey at 3 mg/kg, po for 5 days; assay type: ADME, organism-based, Macaca fascicularis; parameters: dose 3 mg/kg, route oral
ENDPOINT: concentration at 120 h (nM)
Please state the figure in nM; there is no need to write the unit.

Entry under test: CCOC(=O)N1c2ccc(C(F)(F)F)cc2[C@@H](N(Cc2cc(C(F)(F)F)cc(C(F)(F)F)c2)C(=O)OC)C[C@H]1CC . Its concentration at 120 h was 300

Entry under test: O[C@@H](CN1c2cccc(-c3cccc(OC(F)(F)F)c3)c2CC[C@@H]1c1cccc(OC(F)(F)C(F)F)c1)C(F)(F)F . Its concentration at 120 h was 400

====

assay: Inhibition of CETP-mediated transfer of cholesteryl ester to LDL/VLDL in rabbit plasma by Roar assay; type: cell-free; settings: Oryctolagus cuniculus
ENDPOINT: IC50

Entry under test: O[C@@H](CN1c2cccc(-c3cccc(OC(F)(F)F)c3)c2CC[C@@H]1c1cccc(OC(F)(F)C(F)F)c1)C(F)(F)F . Its IC50 was 3.5 µM

====

assay: Tmax in rat at 2 to 3 mg/kg, iv and 10 mg/kg, po; assay type: ADME, organism-based; conditions: in vivo
ENDPOINT: Tmax (h)
Please state the figure in h; there is no need to write the unit.

Entry under test: O[C@@H](CN1c2cccc(-c3cccc(OC(F)(F)F)c3)c2CC[C@@H]1c1cccc(OC(F)(F)C(F)F)c1)C(F)(F)F . Its Tmax was 6

====

assay: Volume of distribution at steady state in rat at 2 to 3 mg/kg, iv and 10 mg/kg, po; assay type: ADME, organism-based; settings: in vivo, read-out: Vdss
ENDPOINT: Vd (L/kg)
Please state the figure in L/kg; there is no need to write the unit.

Entry under test: O[C@@H](CN1c2cccc(-c3cccc(OC(F)(F)F)c3)c2CC[C@@H]1c1cccc(OC(F)(F)C(F)F)c1)C(F)(F)F . Its Vd was 0.36

====

experiment: Metabolic stability in human liver microsomes assessed as half life; format: ADME, Microsome
ENDPOINT: half-life

Entry under test: O[C@@H](CN1c2cccc(-c3cccc(OC(F)(F)F)c3)c2CC[C@@H]1c1cccc(OC(F)(F)C(F)F)c1)C(F)(F)F . Its half-life was > 2.13 h
